Test: chemical genetic growth profiling, strain panel (AID 1159580);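 also: tested at 20 µM; growth read once vehicle control cultures reached saturation at 30 °C; 1 = growth at the plate median or of vehicle wells; lower values mean less growth of the strain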
Conditions: S. cerevisiae deletion strains, growth OD, locus YJL115W, strain asf1, hits give low values
The whole screen tested about 5,500 compounds, of which about 2,000 (36%) were called active. Roughly 18% stayed inconclusive and do not appear here. The list shows a part of the results.
experimentalReadout: normalized growth

> print(dat)
                                    molecule  reading
 1                          CC(=O)c1ccc[nH]1    0.993
 2  CC(=O)OC[C@@]1(O)C[C@@]23CCC4c5ccoc5CC[C@]4(C)C2CC[C@@H]1C3 (some centres not stated)     1.01
 3         O=c1c(O)c(-c2ccccc2)oc2cc(O)ccc12      0.9
 4  NC(=NCCCCCCN=C(N)N=C(N)Nc1ccc(Cl)cc1)N=C(N)Nc1ccc(Cl)cc1   0.0702
 5  COc1cc([C@@H]2c3cc4c(cc3[C@H](O)[C@H]3COC(=O)[C@H]23)OCO4)cc(OC)c1OC     1.01
 6       O=c1c(O)c(-c2ccccc2)oc2ccc3occc3c12    0.943
 7         O=c1c(O)c(-c2ccc(O)cc2)oc2ccccc12    0.971
 8       CC(=O)CCCCn1c(=O)c2c(ncn2C)n(C)c1=O     1.01
 9            CC(=O)Nc1c(I)cc(I)c(C(=O)O)c1I    0.963
10  CCCCN(CC)c1c([N+](=O)[O-])cc(C(F)(F)F)cc1[N+](=O)[O-]     1.01
11                Cn1c(=O)[nH]c2ncn(C)c2c1=O    0.969
12         COc1ccc(NS(=O)(=O)c2ccc(N)cc2)nn1    0.996
